Assay Target: UniProtKB P22681
Assay Method Text: C-Cbl LCK Ub TR-FRET assay (c-cbl Lck HTRF)
Type: biochemical

{"Molecule": "CC(C)[C@H]1CN(C)CCN1Cc1cc2c(c(C(F)(F)F)c1)CN(c1cccc([C@]3([C@H](F)c4nncn4C)CCO3)c1)C2=O (single isomer, unassigned)", "IC50, nM": 840}
{"Molecule": "CC(C)[C@H]1CNCCN1Cc1cc2c(c(C(F)(F)F)c1)CN(c1cccc(C3([C@@H](F)c4nncn4C)COC3)c1)C2=O", "IC50, nM": 18}
{"Molecule": "COc1cccc2c1CN(c1cccc(C3([C@@H](F)c4nncn4C)COC3)c1)C2=O", "IC50, nM": 2300}
{"Molecule": "CN1C[C@@H]2C[C@H]1CN2Cc1cc2c(c(C(F)(F)F)c1)CN(c1cccc(C3(Cc4nncn4C)CC(F)(F)C3)c1)C2=O", "IC50, nM": 68}
{"Molecule": "Cn1cnnc1[C@H](F)C1(c2cccc(N3Cc4c(I)cccc4C3=O)c2)COC1", "IC50, nM": 770}
{"Molecule": "C[C@H](N)c1cc2c(c(C(F)(F)F)c1)CN(c1cccc(C3([C@@H](F)c4nncn4C)COC3)c1)C2=O", "IC50, nM": 53}
{"Molecule": "C[C@H](c1cc2c(c(C(F)(F)F)c1)CN(c1cccc(C3([C@@H](F)c4nncn4C)COC3)c1)C2=O)N1CC(C)(F)C1", "IC50, nM": 85}
{"Molecule": "COC[C@@H]1CCCN1Cc1cc2c(c(C(F)(F)F)c1)CN(c1cccc(C3([C@H](F)c4nncn4C)COC3)c1)C2=O", "IC50, nM": 2300}
{"Molecule": "CCNc1cc(N2Cc3c(cc(CNCC4CC4)cc3C(F)(F)F)C2=O)cc(C2(Cc3nncn3C)CCC2)c1", "IC50, nM": 12}
{"Molecule": "Cn1cnnc1[C@H](F)C1(c2cccc(N3Cc4c(Br)cccc4C3=O)c2)COC1", "IC50, nM": 400}
{"Molecule": "CC[C@@H](C)Nc1cc(C2(Cc3nncn3C)COC2)cc(N2Cc3c(cccc3C(F)(F)F)C2=O)n1", "IC50, nM": 410}
{"Molecule": "Cn1cnnc1[C@@H](F)C1(c2cccc(N3Cc4c(cc(CN5CCC(C)(O)CC5)cc4C(F)(F)F)C3=O)c2)COC1", "IC50, nM": 430}
{"Molecule": "CC1CN(Cc2cc3c(c(C(F)(F)F)c2)CN(c2cccc(C4([C@H](F)c5nncn5C)COC4)c2)C3=O)CCCO1 (some centres unmarked)", "IC50, nM": 44}
{"Molecule": "Cn1cnnc1CC1(c2cc(C3CC3)nc(N3Cc4c(cc(CNC5(C)CCC5)cc4C(F)(F)F)C3=O)c2)CCC1", "IC50, nM": 7.4}

---

Assay Target: Cbl-b (Homo sapiens (Human), UniProt Q13191)
Sequence (Q13191 40-426): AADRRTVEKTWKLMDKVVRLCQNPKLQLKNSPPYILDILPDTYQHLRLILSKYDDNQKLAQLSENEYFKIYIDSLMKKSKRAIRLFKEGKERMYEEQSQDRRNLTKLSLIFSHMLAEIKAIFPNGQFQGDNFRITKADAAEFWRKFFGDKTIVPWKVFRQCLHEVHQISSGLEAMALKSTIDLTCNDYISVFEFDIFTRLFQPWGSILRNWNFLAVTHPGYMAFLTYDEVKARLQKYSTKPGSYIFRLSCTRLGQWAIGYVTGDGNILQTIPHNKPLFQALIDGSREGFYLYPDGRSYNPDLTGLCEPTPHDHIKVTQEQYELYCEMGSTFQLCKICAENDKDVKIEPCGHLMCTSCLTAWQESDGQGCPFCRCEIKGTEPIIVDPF
Assay Method Text: Cbl-b LCK Ub TR-FRET assay (Cbl-b Lck HTRF)
Assay type: biochemical
pIC50: −log10 of the molar value.
# maps each entry to its pIC50
Assay Endpoint: pIC50

{"Molecule": "CC(C)Nc1cc(C2(Cc3nncn3C)CCC2)cc(N2Cc3c(cc(CN4CCN(C)C[C@@H]4C(C)C)cc3C(F)(F)F)C2=O)n1", "Assay Target": "Cbl-b (Homo sapiens (Human), UniProt Q13191)", "Number": 7.92}
{"Molecule": "CC(C)[C@@H]1CNCCN1Cc1cc2c(c(C(F)(F)F)c1)CN(c1cccc(C3([C@@H](F)c4nncn4C)COC3)c1)C2=O", "Assay Target": "Cbl-b (Homo sapiens (Human), UniProt Q13191)", "Number": 6.74}
{"Molecule": "Cn1cnnc1CC1(c2cc(NC3C4CCC3C4)nc(N3Cc4c(cccc4C(F)(F)F)C3=O)c2)COC1 (stereo not shown)", "Assay Target": "Cbl-b (Homo sapiens (Human), UniProt Q13191)", "Number": 6.09}
{"Molecule": "CC[C@@H]1CC[C@H](c2cc3c(c(C(F)(F)F)c2)CN(c2cccc(C4(Cc5nncn5C)CC(F)(F)C4)c2)C3=O)N1", "Assay Target": "Cbl-b (Homo sapiens (Human), UniProt Q13191)", "Number": 7.33}
{"Molecule": "CCn1cnnc1[C@H](F)C1(c2cccc(N3Cc4c(cccc4C(F)(F)F)C3=O)c2)COC1", "Assay Target": "Cbl-b (Homo sapiens (Human), UniProt Q13191)", "Number": 5.09}
{"Molecule": "COCC1(O)CN(Cc2cc3c(c(C(F)(F)F)c2)CN(c2cccc(C4([C@@H](F)c5nncn5C)COC4)c2)C3=O)C1", "Assay Target": "Cbl-b (Homo sapiens (Human), UniProt Q13191)", "Number": 7.14}
{"Molecule": "C=CC1(O)CN(Cc2cc3c(c(C(F)(F)F)c2)CN(c2cccc(C4([C@H](F)c5nncn5C)COC4)c2)C3=O)C1", "Assay Target": "Cbl-b (Homo sapiens (Human), UniProt Q13191)", "Number": 6.85}

---

Assay Target: c-Cbl (Homo sapiens (Human), UniProt P22681)
Sequence (P22681 47-435): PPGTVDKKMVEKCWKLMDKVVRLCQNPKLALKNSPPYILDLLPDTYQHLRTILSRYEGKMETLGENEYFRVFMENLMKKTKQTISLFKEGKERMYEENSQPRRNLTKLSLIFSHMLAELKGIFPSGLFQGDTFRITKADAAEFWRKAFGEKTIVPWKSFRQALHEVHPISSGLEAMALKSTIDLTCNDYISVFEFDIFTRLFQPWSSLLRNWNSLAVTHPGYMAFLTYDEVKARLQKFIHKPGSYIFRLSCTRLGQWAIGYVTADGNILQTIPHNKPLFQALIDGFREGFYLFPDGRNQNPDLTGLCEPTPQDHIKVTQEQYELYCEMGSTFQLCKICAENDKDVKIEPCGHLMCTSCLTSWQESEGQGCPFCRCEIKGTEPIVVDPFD
Assay Method Text: C-Cbl LCK Ub TR-FRET assay (c-cbl Lck HTRF)
Format: biochemical
Protocol: 6 μL of detection mixture was added to all wells and briefly centrifuged before incubating for 20 min at room temperature. […] IC50 was generated using no LCK as the low control and DMSO as the high control.
pIC50: −log10 of the molar value.
Rule: 1.0 for pIC50 not less than 7, 0.0 for anything less.

{"Molecule": "C[C@@H](N)c1cc2c(c(C(F)(F)F)c1)CN(c1cccc(C3(Cc4nncn4C)CC(F)(F)C3)c1)C2=O [Compound 385]", "Assay Target": "c-Cbl (Homo sapiens (Human), UniProt P22681)", "Label Value": 1.0}
{"Molecule": "Cn1cnnc1[C@H](F)C1(c2cccc(N3Cc4c(cc([C@H](N)C5CC5)cc4C(F)(F)F)C3=O)c2)COC1 [Compound 54]", "Assay Target": "c-Cbl (Homo sapiens (Human), UniProt P22681)", "Label Value": 1.0}
{"Molecule": "Cn1cnnc1[C@H](F)C1(c2cccc(N3Cc4c(Cl)cccc4C3=O)c2)COC1 [Compound 204]", "Assay Target": "c-Cbl (Homo sapiens (Human), UniProt P22681)", "Label Value": 0.0}
{"Molecule": "Cn1cnnc1[C@@H](F)C1(c2cccc(N3Cc4c(cc(CN)cc4C(F)(F)F)C3=O)c2)CCC1 [Compound 387]", "Assay Target": "c-Cbl (Homo sapiens (Human), UniProt P22681)", "Label Value": 1.0}

---

Assay Target: UniProtKB Q13191
Assay Method Text: Cbl-b LCK Ub TR-FRET assay (Cbl-b Lck HTRF)
Type: biochemical
Where a name gives a salt, the structure may show the parent alone.

{"Compound": "CC(C)[C@H]1CN(Cc2cc3c(c(C(F)(F)F)c2)CN(c2cccc(C4([C@H](F)c5nncn5C)COC4)c2)C3=O)CCN1 [Compound 91]", "IC50 (µM)": 0.14}
{"Compound": "CN1CCN(Cc2cc3c(c(C(F)(F)F)c2)CN(c2cccc(C4(Cc5nncn5C)CC(F)(F)C4)c2)C3=O)CC1C1CC1 (centres unmarked) [Compound 403]", "IC50 (µM)": 0.045}
{"Compound": "CC[C@H](C)NCc1cc2c(c(C(F)(F)F)c1)CN(c1cccc(C3(Cc4nncn4C)CC(F)(F)C3)c1)C2=O [Compound 371]", "IC50 (µM)": 0.015}
{"Compound": "C[C@@H](NC1(C)CCC1)c1cc2c(c(C(F)(F)F)c1)CN(c1cccc(C3([C@@H](F)c4nncn4C)COC3)c1)C2=O [Compound 247]", "IC50 (µM)": 0.0076}
{"Compound": "COC[C@H]1CCCN1Cc1cc2c(c(C(F)(F)F)c1)CN(c1cccc(C3([C@H](F)c4nncn4C)COC3)c1)C2=O [Compound 156]", "IC50 (µM)": 0.92}
{"Compound": "Cn1cnnc1[C@H](F)C1(c2cccc(N3Cc4c(cc(CN5CC(C)(O)C5)cc4C(F)(F)F)C3=O)c2)CC(F)(F)C1 [Compound 51]", "IC50 (µM)": 0.062}
{"Compound": "CC(NCc1cc2c(c(C(F)(F)F)c1)CN(c1cccc(C3(Cc4nncn4C)CC(F)(F)C3)c1)C2=O)C1CC1 (centres unmarked) [Compound 319, formate]", "IC50 (µM)": 0.014}
{"Compound": "Cn1cnnc1[C@@H](F)C1(c2cccc(N3Cc4c(cc(CN5CC6(COC6)C5)cc4C(F)(F)F)C3=O)c2)COC1 [Compound 10]", "IC50 (µM)": 0.5}
{"Compound": "Cn1cnnc1[C@H](F)C1(c2cccc(N3Cc4c(cc(Oc5cn[nH]c5)cc4C(F)(F)F)C3=O)c2)COC1 [Compound 116]", "IC50 (µM)": 0.31}
{"Compound": "Cn1cnnc1CC1(c2cccc(N3Cc4c(cc(CNC5(C)CCCC5)cc4C(F)(F)F)C3=O)c2)CC(F)(F)C1 [Compound 344, formate]", "IC50 (µM)": 0.016}
{"Compound": "CCNc1cc(N2Cc3c(cc(CNC4(C)CCC4)cc3C(F)(F)F)C2=O)cc(C2(Cc3nncn3C)CCC2)c1 [Compound 463]", "IC50 (µM)": 0.006}
{"Compound": "Cn1cc(CNc2cc(C3(Cc4nncn4C)CCC3)cc(N3Cc4c(cc(CNC5(C)CCC5)cc4C(F)(F)F)C3=O)n2)cn1 [Compound 313]", "IC50 (µM)": 0.024}
{"Compound": "C[C@H]1CN(Cc2cc3c(c(C(F)(F)F)c2)CN(c2cccc(C4(Cc5nncn5C)CC(F)(F)C4)c2)C3=O)CCN1 [Compound 425]", "IC50 (µM)": 0.032}
{"Compound": "Cc1cnnn1CC1(c2cccc(N3Cc4c(cc(CNC5(C)CCC5)cc4C(F)(F)F)C3=O)c2)COC1 [Compound 243]", "IC50 (µM)": 0.029}
{"Compound": "Cn1cnnc1CC1(c2cc(NC3CCCC3)nc(N3Cc4c(cc(CNC5(C)CCC5)cc4C(F)(F)F)C3=O)c2)CCC1 [Compound 295]", "IC50 (µM)": 0.044}
{"Compound": "Cn1cnnc1[C@H](F)C1(c2cccc(N3Cc4c(cc(CN)cc4C(F)(F)F)C3=O)c2)CCC1 [Compound 386]", "IC50 (µM)": 0.032}
{"Compound": "Cn1cnnc1C(F)(F)C1(c2cccc(N3Cc4c(cccc4C(F)(F)F)C3=O)c2)CC1 [Compound 49]", "IC50 (µM)": 1.4}
{"Compound": "Cn1cnnc1[C@H](F)[C@@](C)(F)c1cccc(N2Cc3c(cc(CN4CC(C)(F)C4)cc3C(F)(F)F)C2=O)c1 [Compound 33]", "IC50 (µM)": 0.89}
{"Compound": "Cn1cnnc1[C@H](F)C1(c2cccc(N3Cc4c(cc(CN5CC6(COC6)C5)cc4C(F)(F)F)C3=O)c2)COC1 [Compound 9]", "IC50 (µM)": 0.16}
{"Compound": "CC(=O)N1CCC(CNc2cc(C3(Cc4nncn4C)CCC3)cc(N3Cc4c(cc(CNC5(C)CCC5)cc4C(F)(F)F)C3=O)n2)CC1.Cl [Compound 329, hydrochloride]", "IC50 (µM)": 0.098}
{"Compound": "CCOc1cc([C@H](C)Cc2nncn2C)cc(N2Cc3c(cc(CN4CCC5(CC5)C4)cc3C(F)(F)F)C2=O)n1 [Compound 56, formate]", "IC50 (µM)": 0.016}
{"Compound": "CC[C@@H]1CN(Cc2cc3c(c(C(F)(F)F)c2)CN(c2cccc(C4(Cc5nncn5C)CC(F)(F)C4)c2)C3=O)CCN1 [Compound 426]", "IC50 (µM)": 0.035}
{"Compound": "Cn1cnnc1CC1(c2cc(NC3CCCC3)cc(N3Cc4c(cc(CNC5(C)CCC5)cc4C(F)(F)F)C3=O)c2)CC(F)(F)C1 [Compound 477]", "IC50 (µM)": 0.036}
{"Compound": "CC1CC(C)(NCc2cc3c(c(C(F)(F)F)c2)CN(c2cccc(C4(Cc5nncn5C)CC(F)(F)C4)c2)C3=O)C1 (centres unmarked) [Compound 353, formate]", "IC50 (µM)": 0.012}
{"Compound": "Cn1cnnc1[C@@H](F)C1(c2cccc(N3Cc4c(cc(CNCC5CC5)cc4C(F)(F)F)C3=O)c2)CC(F)(F)C1 [Compound 450]", "IC50 (µM)": 0.015}
{"Compound": "Cn1cnnc1[C@H](F)C1(c2cccc(N3Cc4c(cc([C@H](N)CC5CC5)cc4C(F)(F)F)C3=O)c2)COC1 [Compound 390]", "IC50 (µM)": 0.096}
